concentration at 2 h values by entry
measurement.protocol: Pharmacokinetics of ERL and GEF in Wistar rats after four weeks consumption of water or flavoured water (plasma, UPLC-MS/MS, non-compartmental analysis)
Type: in vivo
measurement.context: male, Wistar, rat, plasma, oral, 20 mg/kg, PKSolver sheet; dose 20 mg/kg; +Berry; time 2 h; read-out: Conc
Give just the number in ng/mL; leave the unit off.

Record summary for "COc1cc2ncnc(Nc3ccc(F)c(Cl)c3)c2cc1OCCCN1CCOCC1" : reported concentration at 2 h = 322

The value of concentration at 2 h measured for the molecule "C#Cc1cccc(Nc2ncnc3cc(OCCOC)c(OCCOC)cc23)c1" turned out to be 92.4

* * *

measurement.protocol: Pharmacokinetics of ERL and GEF in Wistar rats after four weeks consumption of water or flavoured water (plasma, UPLC-MS/MS, non-compartmental analysis)
Type: in vivo
measurement.context: male, Wistar, rat, plasma, po, 20 mg/kg, raw data sheet, from average profile; drug alone (water); read-out: t½ (converted)
Each entry below carries its recorded half-life.
Express it in h; write the number only.

C#Cc1cccc(Nc2ncnc3cc(OCCOC)c(OCCOC)cc23)c1    29.4

Here is another compound to look at.
Measured half-life, "COc1cc2ncnc(Nc3ccc(F)c(Cl)c3)c2cc1OCCCN1CCOCC1" : 17.9

* * *

measurement.protocol: Pharmacokinetics of ERL and GEF in Wistar rats after four weeks consumption of water or flavoured water (plasma, UPLC-MS/MS, non-compartmental analysis)
Assay type: in vivo
measurement.context: male, Wistar, rat, plasma, po, 20 mg/kg, rats, 20 mg/kg oral; +Berry FW; average; time 0 h; read-out: Conc*10 (ng/mL plasma)
Measured concentration at 0 h, listed per entry for reference.
Hi! Could you send only the number? It should be in ng/mL, unit omitted.

C#Cc1cccc(Nc2ncnc3cc(OCCOC)c(OCCOC)cc23)c1    6.83

Now look at this entry.
Notebook: "COc1cc2ncnc(Nc3ccc(F)c(Cl)c3)c2cc1OCCCN1CCOCC1" , concentration at 0 h read as 39.1

* * *

measurement.protocol: Pharmacokinetics of ERL and GEF in Wistar rats after four weeks consumption of water or flavoured water (plasma, UPLC-MS/MS, non-compartmental analysis)
Format: in vivo
measurement.context: male, Wistar, rat, plasma, po, 20 mg/kg, rats, 20 mg/kg oral; four weeks berry FW; n = 5, mean (SD); read-out: AUC0-48
quantity: AUC(0-t) (ng·h/mL)
Value expressed in ng·h/mL; do not type the unit.

AUC(0-t) in this record for "COc1cc2ncnc(Nc3ccc(F)c(Cl)c3)c2cc1OCCCN1CCOCC1" : 4460

* * *

measurement.protocol: Pharmacokinetics of ERL and GEF in Wistar rats after four weeks consumption of water or flavoured water (plasma, UPLC-MS/MS, non-compartmental analysis)
Type: in vivo
measurement.context: male, Wistar, rat, plasma, po, 20 mg/kg, rats, 20 mg/kg oral; +Berry FW; average; time 48 h; read-out: Conc*10 (ng/mL plasma)
Reported concentration at 48 h values follow for various compounds
Give your result in ng/mL as a bare value.

C#Cc1cccc(Nc2ncnc3cc(OCCOC)c(OCCOC)cc23)c1    8.18

Let us move to another entry and its concentration at 48 h.
Value of concentration at 48 h reported for the compound "COc1cc2ncnc(Nc3ccc(F)c(Cl)c3)c2cc1OCCCN1CCOCC1" is 30.2

Where do the numbers come from? From paper PMC7518156.
